Reference source for all entries: patent US20250009737A1

# studySystem: MATE1 (Homo sapiens)
# Sequence (Q96FL8 1-570): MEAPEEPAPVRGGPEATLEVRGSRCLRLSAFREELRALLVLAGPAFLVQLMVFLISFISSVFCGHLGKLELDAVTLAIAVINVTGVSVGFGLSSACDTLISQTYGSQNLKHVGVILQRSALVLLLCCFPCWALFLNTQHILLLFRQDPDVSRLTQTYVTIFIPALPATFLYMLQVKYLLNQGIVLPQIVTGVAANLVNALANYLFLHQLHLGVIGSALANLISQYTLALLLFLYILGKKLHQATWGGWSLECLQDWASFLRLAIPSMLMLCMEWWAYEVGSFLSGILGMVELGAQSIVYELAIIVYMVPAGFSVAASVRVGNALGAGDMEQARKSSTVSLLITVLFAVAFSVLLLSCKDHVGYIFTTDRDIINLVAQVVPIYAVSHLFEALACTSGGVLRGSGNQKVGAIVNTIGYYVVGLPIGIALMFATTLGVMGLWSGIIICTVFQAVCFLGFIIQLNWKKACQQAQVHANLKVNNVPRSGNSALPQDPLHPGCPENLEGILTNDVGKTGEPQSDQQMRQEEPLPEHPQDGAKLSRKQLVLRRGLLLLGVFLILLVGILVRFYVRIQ
# methodSummary: MATE1 uptake transporter inhibition in MDCKII or HEK293 cells
# statedConditions: MATE1 inhibition
reportedMetric: pEC50
Entry type: numeric. Quantity: pEC50, the -log10 of concentration in molar units.

INPUT: Please state recorded pEC50 (tested on MATE1 (Homo sapiens)) of COc1cc(O[C@H]2C(C)(C)[C@H](NC(=O)c3ccc(N4CCC(CN5CCN(c6ccc(C(=O)N[C@H]7CCC(=O)NC7=O)c(F)c6)CC5)CC4)cc3)C2(C)C)ccc1C#N [Compound A]
OUTPUT: 5.52

====

# studySystem: OCT2 (Homo sapiens, UniProt O15244)
# Sequence (O15244 whole entry): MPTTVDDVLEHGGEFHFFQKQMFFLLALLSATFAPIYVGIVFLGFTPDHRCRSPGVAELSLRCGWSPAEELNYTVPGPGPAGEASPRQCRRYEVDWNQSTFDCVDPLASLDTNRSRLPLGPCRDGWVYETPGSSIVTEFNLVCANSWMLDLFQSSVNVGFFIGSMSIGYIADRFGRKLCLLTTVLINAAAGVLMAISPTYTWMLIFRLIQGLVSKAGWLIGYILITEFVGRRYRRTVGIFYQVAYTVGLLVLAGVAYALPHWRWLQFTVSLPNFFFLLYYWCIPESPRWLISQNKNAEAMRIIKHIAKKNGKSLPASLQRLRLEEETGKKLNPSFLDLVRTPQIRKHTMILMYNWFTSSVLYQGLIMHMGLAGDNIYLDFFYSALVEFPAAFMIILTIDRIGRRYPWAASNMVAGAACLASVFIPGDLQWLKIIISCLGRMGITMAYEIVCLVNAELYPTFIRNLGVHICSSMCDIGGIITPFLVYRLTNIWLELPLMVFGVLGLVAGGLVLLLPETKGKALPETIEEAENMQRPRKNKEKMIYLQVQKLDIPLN
# methodSummary: OCT2 uptake transporter inhibition in MDCKII or HEK293 cells
# statedConditions: substrate Metformin (10 μM)
reportedMetric: IC50

INPUT: Look up IC50 for this compound: COc1cc(O[C@H]2C(C)(C)[C@H](NC(=O)c3ccc(N4CCC(CN5CCN(c6ccc(C(=O)N[C@H]7CCC(=O)NC7=O)c(F)c6)CC5)CC4)cc3)C2(C)C)ccc1C#N [Compound A]
OUTPUT: > 3.75 µM

====

# studySystem: CYP2B6 (Homo sapiens, UniProt P20813)
# Construct: evaluated in pooled human liver microsomes (HLM); from tissue; host or cells: pooled human liver microsomes
# methodSummary: Direct and time-dependent CYP2B6 inhibition in pooled human liver microsomes
# Format: in vitro ADME
# statedConditions: pooled HLM; substrate Bupropion 50 μM; read-out: IC50, No Pre-incubation
pIC50: −log10 of the molar value.
reportedMetric: pIC50

INPUT: Look up pIC50 for this compound: COc1cc(O[C@H]2C(C)(C)[C@H](NC(=O)c3ccc(N4CCC(CN5CCN(c6ccc(C(=O)N[C@H]7CCC(=O)NC7=O)c(F)c6)CC5)CC4)cc3)C2(C)C)ccc1C#N [Compound A]
OUTPUT: < 4.82

====

# studySystem: MATE1 (Homo sapiens)
# Construct: expressed in transfected cells; host or cells: MDCKII or HEK293
# methodSummary: MATE1 uptake transporter inhibition in MDCKII or HEK293 cells
# Type: in vitro ADME
# statedConditions: MDCKII or HEK293 cells stably expressing MATE1, probe Metformin (10 μM); at a concentration of 3.75 μM
# Description: In addition, the inhibition potential against efflux transporters (P-glycoprotein (Pgp) and breast cancer resistance protein (BCRP)) and uptake transporters (MATE1, MATE2-K, OATP1B1, OATP1B3, OAT1, OAT3, and OCT2) was assessed using single transporter over-expressed cell monolayers (MDCK II or HEK293) or inside-out vesicles. […]
reportedMetric: inhibition at 3.75 µM (%)
Reply with just the number (in %).

INPUT: Look up inhibition at 3.75 µM for this compound: COc1cc(O[C@H]2C(C)(C)[C@H](NC(=O)c3ccc(N4CCC(CN5CCN(c6ccc(C(=O)N[C@H]7CCC(=O)NC7=O)c(F)c6)CC5)CC4)cc3)C2(C)C)ccc1C#N
OUTPUT: 52

====

# studySystem: CYP3A (Homo sapiens, UniProt P08684)
# Sequence (P08684 2-503): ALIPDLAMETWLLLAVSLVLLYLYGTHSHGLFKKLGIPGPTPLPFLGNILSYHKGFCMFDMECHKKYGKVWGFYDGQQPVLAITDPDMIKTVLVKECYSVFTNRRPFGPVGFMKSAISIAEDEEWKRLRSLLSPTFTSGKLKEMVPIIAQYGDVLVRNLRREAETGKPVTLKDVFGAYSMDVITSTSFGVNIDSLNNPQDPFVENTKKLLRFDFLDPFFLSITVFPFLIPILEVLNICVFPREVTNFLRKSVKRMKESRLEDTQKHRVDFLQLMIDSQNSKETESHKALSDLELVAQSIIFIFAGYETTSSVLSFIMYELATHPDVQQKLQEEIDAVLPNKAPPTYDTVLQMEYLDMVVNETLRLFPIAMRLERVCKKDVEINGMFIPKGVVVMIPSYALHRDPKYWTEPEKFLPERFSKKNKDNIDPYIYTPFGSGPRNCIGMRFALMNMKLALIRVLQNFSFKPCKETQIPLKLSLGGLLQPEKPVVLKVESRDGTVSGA
# methodSummary: Direct and time-dependent CYP3A inhibition in pooled human liver microsomes
# Type: in vitro ADME
# statedConditions: probe testosterone (50 μM), pooled HLM, substrate Testosterone 50 μM, read-out: IC50, No Pre-incubation
pIC50: −log10 of the molar value.
reportedMetric: pIC50

INPUT: Look up pIC50 for this compound: COc1cc(O[C@H]2C(C)(C)[C@H](NC(=O)c3ccc(N4CCC(CN5CCN(c6ccc(C(=O)N[C@H]7CCC(=O)NC7=O)c(F)c6)CC5)CC4)cc3)C2(C)C)ccc1C#N
OUTPUT: < 4.82

====

# studySystem: BCRP (Homo sapiens)
# Sequence (Q9UNQ0 1-655): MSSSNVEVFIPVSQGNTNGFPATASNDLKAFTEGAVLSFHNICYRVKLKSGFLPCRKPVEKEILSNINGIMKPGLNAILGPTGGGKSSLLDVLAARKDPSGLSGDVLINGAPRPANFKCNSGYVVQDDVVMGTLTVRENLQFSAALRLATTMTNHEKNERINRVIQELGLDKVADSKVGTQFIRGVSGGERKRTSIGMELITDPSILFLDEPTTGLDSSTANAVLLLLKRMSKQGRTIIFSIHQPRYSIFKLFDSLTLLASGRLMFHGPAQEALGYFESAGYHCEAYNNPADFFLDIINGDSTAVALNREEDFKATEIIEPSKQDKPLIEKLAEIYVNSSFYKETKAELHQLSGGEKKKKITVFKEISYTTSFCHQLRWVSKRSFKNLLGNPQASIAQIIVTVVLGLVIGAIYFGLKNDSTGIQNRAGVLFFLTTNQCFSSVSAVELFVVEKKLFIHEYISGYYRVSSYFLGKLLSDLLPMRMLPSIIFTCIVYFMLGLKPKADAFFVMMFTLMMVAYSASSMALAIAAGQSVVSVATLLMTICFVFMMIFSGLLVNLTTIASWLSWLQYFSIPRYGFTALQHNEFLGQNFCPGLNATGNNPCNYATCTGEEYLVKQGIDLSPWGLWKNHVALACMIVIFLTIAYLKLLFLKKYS
# methodSummary: BCRP inhibition in inside-out membrane vesicles from HEK293
# Format: in vitro ADME
# Design: expressed in transfected cells; host or cells: HEK293 (inside-out membrane vesicles)
# statedConditions: substrate Rosuvastatin (1 μM)
reportedMetric: pIC50
Entry type: numeric. Quantity: pIC50, the -log10 of concentration in molar units.

INPUT: Please state recorded pIC50 (tested on BCRP (Homo sapiens)) of COc1cc(O[C@H]2C(C)(C)[C@H](NC(=O)c3ccc(N4CCC(CN5CCN(c6ccc(C(=O)N[C@H]7CCC(=O)NC7=O)c(F)c6)CC5)CC4)cc3)C2(C)C)ccc1C#N [Compound A]
OUTPUT: 6.68

====

# studySystem: CYP2B6 (Homo sapiens, UniProt P20813)
# Construct: evaluated in pooled human liver microsomes (HLM); from tissue; host or cells: pooled human liver microsomes
# Sequence (P20813 1-491): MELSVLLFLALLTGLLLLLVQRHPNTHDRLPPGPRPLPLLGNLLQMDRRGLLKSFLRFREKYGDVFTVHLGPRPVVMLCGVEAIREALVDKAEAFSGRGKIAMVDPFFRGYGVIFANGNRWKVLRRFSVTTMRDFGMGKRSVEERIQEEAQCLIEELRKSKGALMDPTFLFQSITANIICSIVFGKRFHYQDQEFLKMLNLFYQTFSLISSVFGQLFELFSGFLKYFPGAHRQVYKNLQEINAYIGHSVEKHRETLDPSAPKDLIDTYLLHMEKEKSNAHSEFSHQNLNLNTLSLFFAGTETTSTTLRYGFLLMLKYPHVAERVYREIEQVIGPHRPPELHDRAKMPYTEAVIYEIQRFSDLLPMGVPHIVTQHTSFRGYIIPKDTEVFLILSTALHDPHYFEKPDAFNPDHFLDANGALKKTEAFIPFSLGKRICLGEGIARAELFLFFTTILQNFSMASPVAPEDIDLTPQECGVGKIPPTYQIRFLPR
# methodSummary: Direct and time-dependent CYP2B6 inhibition in pooled human liver microsomes
# Assay type: in vitro ADME
# statedConditions: pooled HLM; substrate Bupropion 50 μM; read-out: IC50, 30 min Pre-incubation
pIC50: −log10 of the molar value.
reportedMetric: pIC50

INPUT: Please state recorded pIC50 (tested on CYP2B6 (Homo sapiens, UniProt P20813)) of COc1cc(O[C@H]2C(C)(C)[C@H](NC(=O)c3ccc(N4CCC(CN5CCN(c6ccc(C(=O)N[C@H]7CCC(=O)NC7=O)c(F)c6)CC5)CC4)cc3)C2(C)C)ccc1C#N
OUTPUT: < 4.82

====

# studySystem: OAT1 (Homo sapiens, UniProt Q4U2R8)
# Sequence (Q4U2R8 whole entry): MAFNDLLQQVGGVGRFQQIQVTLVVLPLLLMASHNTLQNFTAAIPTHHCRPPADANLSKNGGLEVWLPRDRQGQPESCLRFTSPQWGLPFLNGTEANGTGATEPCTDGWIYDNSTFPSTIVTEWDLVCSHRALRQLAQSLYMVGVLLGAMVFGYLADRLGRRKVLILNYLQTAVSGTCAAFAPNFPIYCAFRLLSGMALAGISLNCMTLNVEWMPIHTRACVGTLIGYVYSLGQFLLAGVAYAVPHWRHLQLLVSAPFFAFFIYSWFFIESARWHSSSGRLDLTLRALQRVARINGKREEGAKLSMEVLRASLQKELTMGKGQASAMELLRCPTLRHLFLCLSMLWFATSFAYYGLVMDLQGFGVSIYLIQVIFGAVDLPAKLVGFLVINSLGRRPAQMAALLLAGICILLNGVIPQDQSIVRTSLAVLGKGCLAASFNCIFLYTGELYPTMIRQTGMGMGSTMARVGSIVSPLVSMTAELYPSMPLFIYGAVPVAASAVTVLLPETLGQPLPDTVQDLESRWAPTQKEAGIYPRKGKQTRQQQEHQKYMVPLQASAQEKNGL
# methodSummary: OAT1 uptake transporter inhibition in MDCKII or HEK293 cells
# statedConditions: substrate Estrone-3-sulfate (E3S) (5 μM)
reportedMetric: IC50

INPUT: Please state recorded IC50 (tested on OAT1 (Homo sapiens, UniProt Q4U2R8)) of COc1cc(O[C@H]2C(C)(C)[C@H](NC(=O)c3ccc(N4CCC(CN5CCN(c6ccc(C(=O)N[C@H]7CCC(=O)NC7=O)c(F)c6)CC5)CC4)cc3)C2(C)C)ccc1C#N
OUTPUT: > 3.75 µM
